target: Protein arginine N-methyltransferase 1 (Homo sapiens)
Sequence (Q99873 whole entry): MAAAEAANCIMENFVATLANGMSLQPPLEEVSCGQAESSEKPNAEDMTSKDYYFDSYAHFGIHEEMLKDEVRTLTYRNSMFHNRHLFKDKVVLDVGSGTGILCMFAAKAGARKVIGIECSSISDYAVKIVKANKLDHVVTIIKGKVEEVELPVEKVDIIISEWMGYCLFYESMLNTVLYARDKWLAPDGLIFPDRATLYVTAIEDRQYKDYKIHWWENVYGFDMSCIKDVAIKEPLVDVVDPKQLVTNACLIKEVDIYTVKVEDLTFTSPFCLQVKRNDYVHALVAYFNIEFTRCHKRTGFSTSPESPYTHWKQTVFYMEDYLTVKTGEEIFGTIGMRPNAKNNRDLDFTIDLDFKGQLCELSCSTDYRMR
Starred links: 1 amine or outer side, 2 acyl side, 3 side chain; linkers in the order of their positions; H or OH if unused. Non-standard residues stand in square brackets, D forms with d. Residues, ends and D or L forms follow the SMILES beside them. X2 = N/C(=N\CC(F)(F)F)NCCC[C@H](N[*:1])C(=O)[*:2]; X5 = N/C(=N\C1CC1)NCCC[C@H](N[*:1])C(=O)[*:2]; X1 = N/C(=N\O)NCCC[C@H](N[*:1])C(=O)[*:2]
Measured property: pKi
In plain terms, pKi is the concentration in mol/L turned into minus its base-10 logarithm.

INSERT INTO results (compound, measured_property, numeric_value) VALUES
  ('N=C(N)NCCC[C@H](NC(=O)CN)C(=O)N[C@@H](CCCCN)C(=O)N[C@@H](CCCCN)C(=O)N[C@@H](CCCN/C(N)=N/CC(F)(F)F)C(=O)N[C@@H](CCCNC(=N)N)C(=O)N[C@@H](CCC(N)=O)C(=O)N[C@@H](CCCNC(=N)N)C(=O)N[C@@H](CCCNC(=N)N)C(=O)N[C@@H](CCCNC(=N)N)C(=O)N1CCC[C@H]1C(=O)N1CCC[C@H]1C(=O)N[C@@H](CCC(N)=O)C(=O)O (H-GRKK[X2]RQRRRPPQ-OH)', 'pKi', 5.53),
  ('N=C(N)NCCC[C@H](NC(=O)CN)C(=O)N[C@@H](CCCCN)C(=O)N[C@@H](CCCCN)C(=O)N[C@@H](CCCN/C(N)=N/C1CC1)C(=O)N[C@@H](CCCNC(=N)N)C(=O)N[C@@H](CCC(N)=O)C(=O)N[C@@H](CCCNC(=N)N)C(=O)N[C@@H](CCCNC(=N)N)C(=O)N[C@@H](CCCNC(=N)N)C(=O)N1CCC[C@H]1C(=O)N1CCC[C@H]1C(=O)N[C@@H](CCC(N)=O)C(=O)O (H-GRKK[X5]RQRRRPPQ-OH)', 'pKi', 5.54);

We next turn to a different compound, shown below.
The value of pKi measured for the compound N=C(N)NCCC[C@H](NC(=O)CN)C(=O)N[C@@H](CCCCN)C(=O)N[C@@H](CCCCN)C(=O)N[C@@H](CCCN/C(N)=N/O)C(=O)N[C@@H](CCCNC(=N)N)C(=O)N[C@@H](CCC(N)=O)C(=O)N[C@@H](CCCNC(=N)N)C(=O)N[C@@H](CCCNC(=N)N)C(=O)N[C@@H](CCCNC(=N)N)C(=O)N1CCC[C@H]1C(=O)N1CCC[C@H]1C(=O)N[C@@H](CCC(N)=O)C(=O)O (H-GRKK[X1]RQRRRPPQ-OH) turned out to be 5.57
